target: OR2J2 (Homo sapiens, UniProt O76002, A146V/A218T/A302I/G300K/H297E/H74Y); construct: expressed in transfected cells; transient transfection of pcDNA3.1(+) OR plasmid; experiment: Dose-response test of single lactones on OR2J2; type: cell-based
Sequence (O76002 with tags, fused parts or gaps H74Y/A146V/A218T/H297E/G300K/A302I limits assumed): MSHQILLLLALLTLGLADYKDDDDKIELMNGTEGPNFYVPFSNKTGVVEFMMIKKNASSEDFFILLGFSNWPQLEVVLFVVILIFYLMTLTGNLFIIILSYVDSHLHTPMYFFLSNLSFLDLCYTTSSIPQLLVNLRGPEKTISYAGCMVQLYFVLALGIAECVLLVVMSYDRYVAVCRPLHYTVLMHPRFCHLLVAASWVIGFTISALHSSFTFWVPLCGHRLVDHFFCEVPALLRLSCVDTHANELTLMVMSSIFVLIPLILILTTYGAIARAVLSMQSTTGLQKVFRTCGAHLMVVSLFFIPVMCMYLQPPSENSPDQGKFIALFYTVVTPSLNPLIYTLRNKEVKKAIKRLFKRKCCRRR
The reader will find reported EC2 (concentration for 2-fold luciferase induction) values listed item by item below.
READOUT_NAME: EC2 (concentration for 2-fold luciferase induction) (µM)

{"COMPOUND": "CCCCCCC1CCC(=O)O1 (centres unmarked) [Decalactone gamma]", "RESULT_VALUE": 3.27}
{"COMPOUND": "CCCCCCCCC1CCC(=O)O1 (centres unmarked) [Dodecalactone gamma]", "RESULT_VALUE": 1.41}
{"COMPOUND": "CCCCCCCC1CCC(=O)O1 (centres unmarked) [Undecalactone gamma]", "RESULT_VALUE": 0.71}
{"COMPOUND": "CCCCC1CCC(=O)O1 (centres unmarked) [Octalactone gamma]", "RESULT_VALUE": 65.20}
{"COMPOUND": "CCCCCC1CCC(=O)O1 (centres unmarked) [Nonalactone gamma]", "RESULT_VALUE": 12.85}
{"COMPOUND": "CCCCCC1CCCC(=O)O1 (centres unmarked) [Decalactone delta]", "RESULT_VALUE": 98.89}
{"COMPOUND": "CCCCCCCC1CCCC(=O)O1 (centres unmarked) [Dodecalactone delta]", "RESULT_VALUE": 35.12}

====

molecular target: OR10J1(M51I, I92M) (Homo sapiens, UniProt P30954, I103M/M62I); construct: expressed in transfected cells; transient transfection of pcDNA3.1(+) OR plasmid; experiment: Dose-response test of single lactones on OR10J1(M51I, I92M); assay type: cell-based
Sequence (P30954 with tags, fused parts or gaps M62I/I103M): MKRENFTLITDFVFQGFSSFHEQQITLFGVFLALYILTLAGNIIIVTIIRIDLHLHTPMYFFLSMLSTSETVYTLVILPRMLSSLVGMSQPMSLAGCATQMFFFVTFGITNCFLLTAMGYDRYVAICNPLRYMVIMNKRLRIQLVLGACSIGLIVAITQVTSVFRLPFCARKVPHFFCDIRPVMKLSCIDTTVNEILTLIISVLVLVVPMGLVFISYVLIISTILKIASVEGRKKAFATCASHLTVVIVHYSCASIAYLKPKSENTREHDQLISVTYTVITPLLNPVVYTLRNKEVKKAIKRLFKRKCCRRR
READOUT_NAME: EC2 (concentration for 2-fold luciferase induction) (µM)

{"MOLECULE": "CCCCCCCCC1CCC(=O)O1 (stereo not shown)", "TARGET_OF_ASSAY": "OR10J1(M51I, I92M) (Homo sapiens, UniProt P30954, I103M/M62I)", "RESULT_VALUE": 5.31}
{"MOLECULE": "CCCCCCC1CCC(=O)O1 (stereo not shown)", "TARGET_OF_ASSAY": "OR10J1(M51I, I92M) (Homo sapiens, UniProt P30954, I103M/M62I)", "RESULT_VALUE": 3.63}
{"MOLECULE": "CCCCCCCC1CCCC(=O)O1 (stereo not shown)", "TARGET_OF_ASSAY": "OR10J1(M51I, I92M) (Homo sapiens, UniProt P30954, I103M/M62I)", "RESULT_VALUE": 31.38}
{"MOLECULE": "CCCCCC1CCCC(=O)O1 (stereo not shown)", "TARGET_OF_ASSAY": "OR10J1(M51I, I92M) (Homo sapiens, UniProt P30954, I103M/M62I)", "RESULT_VALUE": 31.73}
{"MOLECULE": "CCCCCCCC1CCC(=O)O1 (stereo not shown)", "TARGET_OF_ASSAY": "OR10J1(M51I, I92M) (Homo sapiens, UniProt P30954, I103M/M62I)", "RESULT_VALUE": 2.11}
{"MOLECULE": "CCCCC1CCC(=O)O1 (stereo not shown)", "TARGET_OF_ASSAY": "OR10J1(M51I, I92M) (Homo sapiens, UniProt P30954, I103M/M62I)", "RESULT_VALUE": 101.73}
{"MOLECULE": "CCCCCC1CCC(=O)O1 (stereo not shown)", "TARGET_OF_ASSAY": "OR10J1(M51I, I92M) (Homo sapiens, UniProt P30954, I103M/M62I)", "RESULT_VALUE": 11.14}

====

target: OR2T11 (Homo sapiens, UniProt Q8NH01, C119R); construct: Improved functional expression of modified OR-genes containing the truncated, optimized C-terminus; expressed in transfected cells; host or cells: HEK293T stably expressing human RTP1S(V227I) and RTP2(L220R); assay: CRE-luciferase assay, HEK293T cells expressing OR2T11 (wild-type / modified C-terminus); type: cell-based; conditions: changed C-term. SEQ ID NO: 86
Sequence (Q8NH01 with tags, fused parts or gaps C119R): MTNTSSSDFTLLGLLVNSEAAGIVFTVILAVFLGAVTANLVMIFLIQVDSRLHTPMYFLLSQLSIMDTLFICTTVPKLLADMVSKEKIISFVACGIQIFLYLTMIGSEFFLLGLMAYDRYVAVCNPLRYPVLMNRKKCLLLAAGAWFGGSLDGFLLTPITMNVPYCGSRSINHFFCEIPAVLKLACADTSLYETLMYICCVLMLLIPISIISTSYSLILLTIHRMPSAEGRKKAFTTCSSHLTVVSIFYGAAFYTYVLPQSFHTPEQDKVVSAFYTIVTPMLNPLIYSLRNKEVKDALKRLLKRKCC
READOUT_NAME: EC50 (µM)

{"MOLECULE": "C=CCSSCC=C [Diallyl disulfide]", "TARGET_OF_ASSAY": "OR2T11 (Homo sapiens, UniProt Q8NH01, C119R)", "READOUT_NAME": "EC50", "READOUT_UNIT": "µM", "RESULT_VALUE": 6.51}

====

target: human class II OR identified in the library screening (Homo sapiens); test: Confirmatory dose-response analysis of library-hit OR with cognate ligand, wild-type vs C-terminal domain SEQ ID NO: 221 (Table 17); settings: read-out: Potency, EC50 changed C-term; OR10G3 (S73G), modified C-terminus SEQ ID NO: 221 (SEQ ID NO: 673)

{"STRUCTURE_AS_SMILES": "COc1cc(C=O)ccc1O", "TARGET_OF_ASSAY": "human class II OR identified in the library screening (Homo sapiens)", "EC50 (µM)": 15.3}

====

target: human class II OR identified in the library screening (Homo sapiens, UniProt A6NM03); test: Confirmatory dose-response analysis of library-hit OR with cognate ligand, wild-type vs C-terminal domain SEQ ID NO: 221 (Table 17); settings: read-out: Potency, EC50 changed C-term; OR2AG2 (Y28C), modified C-terminus SEQ ID NO: 221 (SEQ ID NO: 379);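 further: Wild-type receptor sequences expressed from the pcDNA3.1(+) vector and compared with the C-terminally modified receptors in dose-response tests using each receptor's cognate ligand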
Sequence (A6NM03 1-292): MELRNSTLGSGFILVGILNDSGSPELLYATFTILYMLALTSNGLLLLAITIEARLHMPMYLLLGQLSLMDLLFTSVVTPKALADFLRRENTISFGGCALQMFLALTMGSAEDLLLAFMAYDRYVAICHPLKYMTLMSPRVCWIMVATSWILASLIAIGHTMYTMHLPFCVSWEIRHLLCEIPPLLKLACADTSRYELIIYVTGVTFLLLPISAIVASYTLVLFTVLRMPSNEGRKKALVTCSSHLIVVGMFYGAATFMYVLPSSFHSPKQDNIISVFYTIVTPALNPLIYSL

{"MOLECULE": "O=C(OCc1ccccc1)c1ccccc1O [Benzyl salicylate]", "EC50": "4.5 µM"}

====

Target: OR5B12 (Homo sapiens, UniProt Q96R08, C141R)
Construct: Improved functional expression of modified OR-genes containing the truncated, optimized C-terminus; expressed in transfected cells; host or cells: HEK293T stably expressing human RTP1S(V227I) and RTP2(L220R)
Sequence (Q96R08 with tags, fused parts or gaps C141R): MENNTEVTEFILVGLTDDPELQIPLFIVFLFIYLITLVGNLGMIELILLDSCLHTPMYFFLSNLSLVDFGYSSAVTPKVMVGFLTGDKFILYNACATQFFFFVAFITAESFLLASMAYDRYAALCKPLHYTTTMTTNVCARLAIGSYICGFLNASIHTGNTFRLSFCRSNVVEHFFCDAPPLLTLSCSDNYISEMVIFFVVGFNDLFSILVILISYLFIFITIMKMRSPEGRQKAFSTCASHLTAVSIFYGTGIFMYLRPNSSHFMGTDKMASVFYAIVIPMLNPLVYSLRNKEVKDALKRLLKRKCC
Experiment: CRE-luciferase assay, HEK293T cells expressing OR5B12 (wild-type / modified C-terminus)
Format: cell-based
Conditions: OR5B12 variant, 62.5 μM Hedione HC
Binary call on % of the activation by the optimized sequence RNKEVKDALKRLLKRKCC: MET from 200% upward, NOT MET beneath that.

{"SUBSTANCE": "SEQ ID NO: 148: printed for RNKEVKDALKRLLKRKCRR in Table 6", "ASSIGNED_CLASS": "NOT MET"}
{"SUBSTANCE": "SEQ ID NO: 137 (RNKEVKDALKRLLKRKCCM; source 1..19: note = C-terminal domain sequence)", "ASSIGNED_CLASS": "NOT MET"}
{"SUBSTANCE": "SEQ ID NO: 10 (RNKEVKDALKRLLKRK; source 1..16: note = C-terminal domain sequence)", "ASSIGNED_CLASS": "NOT MET"}
{"SUBSTANCE": "SEQ ID NO: 143 (RNKEVKDALKRLLKRKCCN; source 1..19: note = C-terminal domain sequence)", "ASSIGNED_CLASS": "NOT MET"}
{"SUBSTANCE": "SEQ ID NO: 122 (RNKEVKKAIKRLLKRKCR; source 1..18: note = C-terminal domain sequence)", "ASSIGNED_CLASS": "MET"}
{"SUBSTANCE": "SEQ ID NO: 136 (RNKEVKDALKRLLKRKCCL; source 1..19: note = C-terminal domain sequence)", "ASSIGNED_CLASS": "NOT MET"}
{"SUBSTANCE": "SEQ ID NO: 138 (RNKEVKDALKRLLKRKCCS; source 1..19: note = C-terminal domain sequence)", "ASSIGNED_CLASS": "NOT MET"}
{"SUBSTANCE": "SEQ ID NO: 150 (RNKEVKDALKRLLKRKCRKK; source 1..20: note = C-terminal domain sequence)", "ASSIGNED_CLASS": "NOT MET"}
{"SUBSTANCE": "SEQ ID NO: 198 (RNKEVKDALKRLLKRKC; source 1..17: note = C-terminal domain sequence)", "ASSIGNED_CLASS": "NOT MET"}
{"SUBSTANCE": "SEQ ID NO: 145 (RNKEVKDALKRLLKRKCCK; source 1..19: note = C-terminal domain sequence)", "ASSIGNED_CLASS": "MET"}
{"SUBSTANCE": "SEQ ID NO: 86: optimized C-terminal sequence fused after TM7 of the OR of the assay (RNKEVKDALKRLLKRKCC; source 1..18: note = C-terminal domain sequence)", "ASSIGNED_CLASS": "NOT MET"}
{"SUBSTANCE": "SEQ ID NO: 135 (RNKEVKDALKRLLKRKCCF; source 1..19: note = C-terminal domain sequence)", "ASSIGNED_CLASS": "NOT MET"}
{"SUBSTANCE": "SEQ ID NO: 151 (RNKEVKDALKRLLKRKCCRR; source 1..20: note = C-terminal domain sequence)", "ASSIGNED_CLASS": "MET"}
